Molecular target: Alpha-1A adrenergic receptor (Rattus norvegicus)
Sequence (P43140 whole entry): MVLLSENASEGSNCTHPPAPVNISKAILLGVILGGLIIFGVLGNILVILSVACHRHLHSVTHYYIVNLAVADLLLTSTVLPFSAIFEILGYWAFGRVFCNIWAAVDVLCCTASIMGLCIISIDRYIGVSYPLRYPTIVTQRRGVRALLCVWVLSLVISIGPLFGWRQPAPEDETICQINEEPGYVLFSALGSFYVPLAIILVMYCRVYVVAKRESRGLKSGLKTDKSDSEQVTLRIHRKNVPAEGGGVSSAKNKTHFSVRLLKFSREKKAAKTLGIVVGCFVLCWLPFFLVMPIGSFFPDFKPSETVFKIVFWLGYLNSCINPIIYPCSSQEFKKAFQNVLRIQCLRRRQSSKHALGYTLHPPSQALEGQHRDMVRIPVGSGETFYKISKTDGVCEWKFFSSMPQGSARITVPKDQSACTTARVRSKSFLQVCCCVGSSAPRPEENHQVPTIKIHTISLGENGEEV
metric: Ki

>>> result("CC(C)C(=O)N(c1ccccc1)C1CC(C)N(C(=O)c2ccccc2)c2ccccc21 (stereo unspecified) [K117]")
"> 1000 nM"

====

Molecular target: Thromboxane-A synthase (Homo sapiens)
Sequence (P24557 whole entry): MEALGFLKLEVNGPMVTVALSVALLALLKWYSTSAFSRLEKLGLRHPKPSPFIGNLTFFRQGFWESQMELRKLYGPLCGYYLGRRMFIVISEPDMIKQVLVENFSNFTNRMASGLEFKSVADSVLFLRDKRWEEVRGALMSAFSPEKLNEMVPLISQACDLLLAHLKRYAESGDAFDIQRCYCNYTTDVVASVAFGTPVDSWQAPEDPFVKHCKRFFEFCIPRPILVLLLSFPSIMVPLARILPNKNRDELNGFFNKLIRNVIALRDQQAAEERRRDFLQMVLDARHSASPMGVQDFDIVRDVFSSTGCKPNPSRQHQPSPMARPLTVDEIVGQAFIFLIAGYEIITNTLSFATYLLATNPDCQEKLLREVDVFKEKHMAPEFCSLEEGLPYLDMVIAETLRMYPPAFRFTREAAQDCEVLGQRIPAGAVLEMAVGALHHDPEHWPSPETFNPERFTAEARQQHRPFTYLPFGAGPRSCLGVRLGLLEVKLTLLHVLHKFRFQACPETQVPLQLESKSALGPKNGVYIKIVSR
metric: Ki

>>> result("CC(C)C(=O)N(c1ccccc1)C1CC(C)N(C(=O)c2ccccc2)c2ccccc21 (stereo unspecified)")
"> 1000 nM"

====

Molecular target: Platelet-activating factor receptor (Homo sapiens, UniProt P25105)
Sequence (P25105 whole entry): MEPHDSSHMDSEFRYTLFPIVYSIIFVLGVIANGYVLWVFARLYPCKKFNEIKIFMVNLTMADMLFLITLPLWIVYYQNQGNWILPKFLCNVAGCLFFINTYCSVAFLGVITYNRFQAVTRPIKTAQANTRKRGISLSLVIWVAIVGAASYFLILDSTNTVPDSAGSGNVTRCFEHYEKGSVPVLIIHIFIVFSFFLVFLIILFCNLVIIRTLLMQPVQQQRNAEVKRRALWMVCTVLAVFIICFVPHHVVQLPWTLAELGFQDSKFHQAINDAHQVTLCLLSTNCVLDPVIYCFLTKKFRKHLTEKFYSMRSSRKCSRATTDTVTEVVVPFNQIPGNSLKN
pKi: −log10 of the molar value.
metric: pKi

>>> result("CCC(=O)N1c2ccccc2C(N(C(C)=O)c2ccccc2)CC1C (stereo unspecified)")
"< 6.00"
